# tgt: Stb5 (UniProt P38699)
# Sequence: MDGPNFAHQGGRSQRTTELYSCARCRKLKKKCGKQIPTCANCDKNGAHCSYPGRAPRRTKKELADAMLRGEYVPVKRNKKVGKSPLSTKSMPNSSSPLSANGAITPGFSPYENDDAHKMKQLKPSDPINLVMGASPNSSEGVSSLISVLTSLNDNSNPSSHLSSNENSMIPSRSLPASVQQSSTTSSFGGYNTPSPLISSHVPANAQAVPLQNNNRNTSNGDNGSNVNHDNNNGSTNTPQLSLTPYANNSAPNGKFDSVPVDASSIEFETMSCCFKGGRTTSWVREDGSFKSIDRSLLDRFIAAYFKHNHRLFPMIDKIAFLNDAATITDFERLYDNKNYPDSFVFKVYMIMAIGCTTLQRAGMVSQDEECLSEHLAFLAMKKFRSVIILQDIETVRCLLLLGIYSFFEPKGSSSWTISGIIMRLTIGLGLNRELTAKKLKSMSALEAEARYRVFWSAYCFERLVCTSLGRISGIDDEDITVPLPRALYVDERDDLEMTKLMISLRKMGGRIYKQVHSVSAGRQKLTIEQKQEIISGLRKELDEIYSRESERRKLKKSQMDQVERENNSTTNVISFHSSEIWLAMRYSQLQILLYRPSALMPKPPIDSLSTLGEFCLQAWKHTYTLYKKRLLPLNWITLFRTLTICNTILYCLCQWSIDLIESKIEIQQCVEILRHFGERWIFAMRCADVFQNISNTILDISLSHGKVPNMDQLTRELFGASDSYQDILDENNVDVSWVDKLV
# test.description: PBM E-score (8-mer binding enrichment) (E-score (-0.5 to 0.5)); higher = stronger / more preferred TF binding
# condition.summary: protein concentration: 200 nM; construct: GST-full length
Whole data set: some 33,000 sequences, median “E-score (-0.5 to 0.5)” near -0.054, cut for the highest 2% near 0.35. The full list was thinned out, with the highest values kept by preference.
PBM E-score vs 0.07: at or above is yes (1), below is no (0).

Please review the entries below; each comes with its answer.
> print(dat)
    polymer.sequence  discrete.label
 1          AGTGTAAC          no (0)
 2          ATACCGCC         yes (1)
 3          AACCCCCG         yes (1)
 4          AACCCCCC          no (0)
 5          AGGCCGAT         yes (1)
 6          CGACCGCC         yes (1)
 7          GGTGTTAC         yes (1)
 8          GAGTTCGC          no (0)
 9          TCAAGTCA          no (0)
10          ACCCCCCG         yes (1)

Query :: In plain terms: is recorded PBM E-score at least 0.07 for GTGAAGCA ?
Result :: no (0)

Query :: In plain terms: is recorded PBM E-score at least 0.07 for GTGTCCGA ?
Result :: yes (1)

Query :: In plain terms: is recorded PBM E-score at least 0.07 for AGAGTGAT ?
Result :: no (0)

Query :: In plain terms: is recorded PBM E-score at least 0.07 for ATCAAACA ?
Result :: no (0)

Query :: In plain terms: is recorded PBM E-score at least 0.07 for CCCTGTAA ?
Result :: no (0)

Query :: In plain terms: is recorded PBM E-score at least 0.07 for AATGCCAT ?
Result :: no (0)

Query :: In plain terms: is recorded PBM E-score at least 0.07 for CAACCCCG ?
Result :: yes (1)

----------
# tgt: Stb5 (UniProt P38699)
# Sequence: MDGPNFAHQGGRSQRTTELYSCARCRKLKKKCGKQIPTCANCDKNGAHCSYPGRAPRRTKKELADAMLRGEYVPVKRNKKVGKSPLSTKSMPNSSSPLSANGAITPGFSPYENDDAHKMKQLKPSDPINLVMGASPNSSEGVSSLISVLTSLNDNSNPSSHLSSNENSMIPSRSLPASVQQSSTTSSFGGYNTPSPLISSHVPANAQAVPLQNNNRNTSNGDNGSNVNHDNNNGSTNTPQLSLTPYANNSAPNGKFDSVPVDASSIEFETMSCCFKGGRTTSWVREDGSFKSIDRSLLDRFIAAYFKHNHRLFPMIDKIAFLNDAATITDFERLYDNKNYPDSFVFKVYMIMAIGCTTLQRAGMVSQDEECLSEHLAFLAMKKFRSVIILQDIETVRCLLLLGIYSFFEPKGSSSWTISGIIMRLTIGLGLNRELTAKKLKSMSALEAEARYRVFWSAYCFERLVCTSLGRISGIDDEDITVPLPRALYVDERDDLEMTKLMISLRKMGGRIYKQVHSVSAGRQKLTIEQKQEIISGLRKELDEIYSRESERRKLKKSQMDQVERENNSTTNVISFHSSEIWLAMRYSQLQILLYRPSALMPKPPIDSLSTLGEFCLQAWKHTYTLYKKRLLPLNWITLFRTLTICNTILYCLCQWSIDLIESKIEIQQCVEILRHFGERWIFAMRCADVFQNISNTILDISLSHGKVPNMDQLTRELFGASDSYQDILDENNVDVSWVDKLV
# test.description: PBM E-score (8-mer binding enrichment) (E-score (-0.5 to 0.5)); higher = stronger / more preferred TF binding
# condition.summary: protein concentration: 200 nM; construct: GST-full length
Whole data set: some 33,000 sequences, median “E-score (-0.5 to 0.5)” near -0.054, cut for the highest 2% near 0.35. This is one part of a sample in which the highest values are shown more often than they occur.
In this scheme, each record receives a class according to its PBM E-score; the ranges are low value = under -0.2, medium value = from -0.2 up to 0.2, high value = 0.2 and over

Please review the entries below; each comes with its answer.
> print(dat)
    polymer.sequence  discrete.label
 1          GCCTCACA       low value
 2          GTCCTCTA    medium value
 3          CCGAACTA    medium value
 4          AATTCCTA       low value
 5          ATAAGTCC      high value
 6          ATAATGAA    medium value
 7          ACCACCTA    medium value
 8          ACCCACGT       low value
 9          AAAATATT    medium value
10          CGCGCCGC      high value

Query :: Place this sequence in its band: GGTACTTA
Result :: high value

----------
# tgt: Stb5 (UniProt P38699)
# Sequence: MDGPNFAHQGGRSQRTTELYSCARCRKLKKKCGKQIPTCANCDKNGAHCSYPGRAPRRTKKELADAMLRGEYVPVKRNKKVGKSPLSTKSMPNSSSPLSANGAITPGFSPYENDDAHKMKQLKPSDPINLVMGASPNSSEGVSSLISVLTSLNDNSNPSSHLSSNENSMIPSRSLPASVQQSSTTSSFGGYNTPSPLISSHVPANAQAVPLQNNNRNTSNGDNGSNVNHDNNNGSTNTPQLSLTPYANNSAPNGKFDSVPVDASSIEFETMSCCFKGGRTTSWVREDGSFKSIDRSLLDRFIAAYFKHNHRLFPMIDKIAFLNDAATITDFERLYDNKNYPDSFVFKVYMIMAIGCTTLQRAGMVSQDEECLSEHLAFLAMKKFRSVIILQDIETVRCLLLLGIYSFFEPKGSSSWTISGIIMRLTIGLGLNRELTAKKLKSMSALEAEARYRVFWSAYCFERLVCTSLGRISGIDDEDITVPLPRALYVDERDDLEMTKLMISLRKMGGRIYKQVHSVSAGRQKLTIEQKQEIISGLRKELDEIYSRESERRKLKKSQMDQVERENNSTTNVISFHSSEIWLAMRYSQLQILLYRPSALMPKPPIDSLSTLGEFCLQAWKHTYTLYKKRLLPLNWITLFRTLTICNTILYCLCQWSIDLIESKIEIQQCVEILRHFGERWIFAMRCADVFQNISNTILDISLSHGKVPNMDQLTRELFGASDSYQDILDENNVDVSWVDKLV
# test.description: PBM E-score (8-mer binding enrichment) (E-score (-0.5 to 0.5)); higher = stronger / more preferred TF binding
# condition.summary: protein concentration: 200 nM; construct: GST-full length
In all, about 33,000 sequences were measured (“E-score (-0.5 to 0.5)”: median about -0.054, highest 2% from about 0.35 on). Only a selection was taken, and the highest values are over-represented in it overall.
Please provide measured PBM E-score for the entries that follow.

> print(dat)
   polymer.sequence  parameter.measured   result
1          ATGGCGAG         PBM E-score   -0.242
2          AGACCGAC         PBM E-score    0.385
3          ATTCCTTC         PBM E-score  -0.0881
4          GAACCGAC         PBM E-score    0.225
5          AGGCGGGG         PBM E-score     0.38

Fill in PBM E-score for each of the 3 sequences listed.
1. AGGCGGAT
2. CCTGCCCC
3. AATGGATA

Result ::
1. 0.0922
2. 0.0235
3. 0.135
